Recorded values, source paper PMC9144829.

# System: H-69 cells
# test: MTT assay, H-69 cells
# Assay type: cell-based
# run-conditions: read-out: IC50 Values (Mean ± SD; n = 3), 24 h
pIC50: −log10 of the molar value.
readout-kind: pIC50

Sample N.N.[Cl][Pt][Cl] [Cisplatin, reference compound] ; pIC50 observed: < 4.70

* * *

# Test system: human cervical cancer (HeLa) cells
# test: MTT assay, HeLa cells
# Format: cell-based
# run-conditions: read-out: IC50 Values (Mean ± SD; n = 3); HeLa cells, 72 h
# Experimental: The MTT reduction assay was performed with non-cancer (Vero), human cervical cancer (HeLa), human colon cancer (HCT116), human breast adenocarcinoma cancer (MCF-7), and cholangiocarcinoma (H-69 […], KKU-100 and KKU-M213B) cell lines according to the previously described method. Briefly, cells were seeded in 96-well plates. […] The cell viability was expressed as a percentage of the viable cells of control culture conditions, and the IC50 values of each group were calculated.
readout-kind: IC50 (µM)
Express the result in µM but write the number alone.

Let me check: N.N.[Cl][Pt][Cl] [Cisplatin, reference compound] , system human cervical cancer (HeLa) cells, measured IC50 is 6.45

* * *

# System: human colon cancer (HCT116) cells
# test: MTT assay, HCT116 cells
# Assay type: cell-based
# run-conditions: Homo sapiens, HCT-116, read-out: IC50 Values (Mean ± SD; n = 3), 24 h
pIC50 values by entry
Schema: pIC50 number; meaning minus log10 of the concentration expressed in molar units.

| molecule | readout-kind | measured |
| --- | --- | --- |
| CCCCC/C=C/C(=O)CCc1ccc(O)c(OC)c1 [Compound 4, [6]-shogaol] | pIC50 | 4.76 |
| CCCCCC1CC(CCc2ccc(O)c(OC)c2)=NN1c1ccc(C(=O)O)cc1 (centres unmarked) | pIC50 | 4.02 |
| CCCCC/C=C/C(CCc1ccc(O)c(OC)c1)=N\Nc1nc2ccccc2s1 | pIC50 | 4.40 |
| CCCCCC1CC(CCc2ccc(O)c(OC)c2)=NN1c1ccc([N+](=O)[O-])cc1 (centres unmarked) | pIC50 | 4.37 |

Kindly consider the entry below.
Sample CCCCC/C=C/C(CCc1ccc(O)c(OC)c1)=N\Nc1ccccn1 ; pIC50 observed: 4.69

* * *

# Tested on: human cervical cancer (HeLa) cells
# test: MTT assay, HeLa cells
# Format: cell-based
# run-conditions: Homo sapiens, read-out: IC50 Values (Mean ± SD; n = 3); HeLa cells, 48 h
# Description: The MTT reduction assay was performed with non-cancer (Vero), human cervical cancer (HeLa), human colon cancer (HCT116), human breast adenocarcinoma cancer (MCF-7), and cholangiocarcinoma (H-69 […], KKU-100 and KKU-M213B) cell lines according to the previously described method. Briefly, cells were seeded in 96-well plates. […] The cell viability was expressed as a percentage of the viable cells of control culture conditions, and the IC50 values of each group were calculated.
// NB: equality with 10 µM counts as N; only IC50 strictly below is Y

| molecule | system-under-test | discrete-label |
| --- | --- | --- |
| CCCCC/C=C/C(CCc1ccc(O)c(OC)c1)=N\Nc1ccccn1 | human cervical cancer (HeLa) cells | N |
| CCCCCC1CC(CCc2ccc(O)c(OC)c2)=NN1c1ccc([N+](=O)[O-])cc1 (centres unmarked) | human cervical cancer (HeLa) cells | N |
| CCCCCC1CC(CCc2ccc(O)c(OC)c2)=NN1c1ccc(C(=O)O)cc1 (centres unmarked) | human cervical cancer (HeLa) cells | N |

[ask] For CCCCC/C=C/C(CCc1ccc(O)c(OC)c1)=N\Nc1nc2ccccc2s1 , is the recorded IC50 below the cut-off of 10 µM?
[reply] N

[ask] For CCCCC/C=C/C(=O)CCc1ccc(O)c(OC)c1 [Compound 4, [6]-shogaol] , is the recorded IC50 below the cut-off of 10 µM?
[reply] Y

* * *

# Tested on: cholangiocarcinoma KKU-100 cells
# test: MTT assay, KKU-100 cells
# Type: cell-based, human
# run-conditions: read-out: IC50 Values (Mean ± SD; n = 3), 24 h
readout-kind: IC50

Sample N.N.[Cl][Pt][Cl] [Cisplatin, reference compound] ; IC50 observed: 17.3 µM

* * *

# Test system: human colon cancer (HCT116) cells
# test: MTT assay, HCT116 cells
# Assay type: cell-based
# run-conditions: read-out: IC50 Values (Mean ± SD; n = 3), 24 h
readout-kind: IC50 (µM)
Express the result in µM but write the number alone.

Sample N.N.[Cl][Pt][Cl] [Cisplatin, reference compound] ; IC50 observed: 21

* * *

# System: HDAC enzymes (HeLa nuclear extract, mixed-HDAC isoforms)
# test: Fluor-de-Lys HDAC activity assay kit, HeLa nuclear extract as source of HDAC enzymes
# Assay type: biochemical, human
# run-conditions: compounds at 100 µM
readout-kind: %HDAC Inhibition (%)
Express the result in % but write the number alone.

| compound | %HDAC Inhibition, % |
| --- | --- |
| CCCCC/C=C/C(=O)CCc1ccc(O)c(OC)c1 [Compound 4, [6]-shogaol] | 86 |
| CCCCCC1CC(CCc2ccc(O)c(OC)c2)=NN1c1cccc([N+](=O)[O-])c1 (stereo not shown) | 77 |
| CCCCCC1CC(CCc2ccc(O)c(OC)c2)=Nc2ccccc2N1 (stereo not shown) | 63 |
| CCCCC/C=C/C(CCc1ccc(O)c(OC)c1)=N\Nc1nc2ccccc2s1 | 80 |
| CCCCCC1CC(CCc2ccc(O)c(OC)c2)=NN1c1ccccc1OC (stereo not shown) | 52 |
| CCCCCC1CC(CCc2ccc(O)c(OC)c2)=NN1c1ccccc1 (stereo not shown) | 74 |
| CCCCC/C=C/C(CCc1ccc(O)c(OC)c1)=N\Nc1ccccn1 | 80 |
| CCCCCC1CC(CCc2ccc(O)c(OC)c2)=NN1c1ccc(C(=O)O)cc1 (stereo not shown) | 83 |
| CCCCCC1CC(CCc2ccc(O)c(OC)c2)=NN1c1ccc(Cl)cc1 (stereo not shown) | 68 |
| CCCCC/C=C/C(CCc1ccc(O)c(OC)c1)=N\Nc1ccc(C(=O)O)cc1 | 73 |

Sample CCCCCC1CC(CCc2ccc(O)c(OC)c2)=NN1c1ccc(OC)cc1 (stereo not shown) ; %HDAC Inhibition observed: 67

Sample CC(/C=C/C(=O)NO)=C\[C@@H](C)C(=O)c1ccc(N(C)C)cc1 [TSA, Trichostatin A, reference compound] ; %HDAC Inhibition observed: 92

* * *

# Test system: HDAC enzymes (HeLa nuclear extract, mixed-HDAC isoforms)
# test: Fluor-de-Lys HDAC activity assay kit, HeLa nuclear extract as source of HDAC enzymes
# Assay type: biochemical, human
# run-conditions: compounds at 100 µM
# Protocol: The in vitro HDAC inhibitions of the obtained compounds were carried out with the assay kit containing mixed-HDAC isoforms. […] Therefore, the results were not fully related. […] The semi-synthetic derivatives were evaluated for their ability to inhibit HDAC enzymes. Inhibition of HDAC activity in vitro was assessed using the Fluor-de-Lys HDAC activity assay kit (Biomol, Enzo Life Sciences International, Inc., Farmingdale, NY, USA). […]
readout-kind: %HDAC Inhibition (%)
Express the result in % but write the number alone.

| compound | reading-unit | measured |
| --- | --- | --- |
| CCCCCC1CC(CCc2ccc(O)c(OC)c2)=NN1c1ccccc1C (stereo not shown) | % | 56 |

Sample CCCCCC1CC(CCc2ccc(O)c(OC)c2)=NN1c1cccc(Cl)c1 (stereo not shown) ; %HDAC Inhibition observed: 60

Sample CCCCC/C=C/C(CCc1ccc(O)c(OC)c1)=N\N ; %HDAC Inhibition observed: 73

Sample CCCCC/C=C/C(CCc1ccc(O)c(OC)c1)=N\NC1=NCC=N1 ; %HDAC Inhibition observed: 73

Sample CCCCCC1CC(CCc2ccc(O)c(OC)c2)=NN1c1ccccc1F (stereo not shown) ; %HDAC Inhibition observed: 54

Sample CCCCCC1CC(CCc2ccc(O)c(OC)c2)=NN1c1ccc([N+](=O)[O-])cc1 (stereo not shown) ; %HDAC Inhibition observed: 85

Sample CCCCCC1CC(CCc2ccc(O)c(OC)c2)=NN1c1ccc(F)cc1 (stereo not shown) ; %HDAC Inhibition observed: 77
